TARGET: CD73 (Homo sapiens (Human))
Sequence (P21589 27-574): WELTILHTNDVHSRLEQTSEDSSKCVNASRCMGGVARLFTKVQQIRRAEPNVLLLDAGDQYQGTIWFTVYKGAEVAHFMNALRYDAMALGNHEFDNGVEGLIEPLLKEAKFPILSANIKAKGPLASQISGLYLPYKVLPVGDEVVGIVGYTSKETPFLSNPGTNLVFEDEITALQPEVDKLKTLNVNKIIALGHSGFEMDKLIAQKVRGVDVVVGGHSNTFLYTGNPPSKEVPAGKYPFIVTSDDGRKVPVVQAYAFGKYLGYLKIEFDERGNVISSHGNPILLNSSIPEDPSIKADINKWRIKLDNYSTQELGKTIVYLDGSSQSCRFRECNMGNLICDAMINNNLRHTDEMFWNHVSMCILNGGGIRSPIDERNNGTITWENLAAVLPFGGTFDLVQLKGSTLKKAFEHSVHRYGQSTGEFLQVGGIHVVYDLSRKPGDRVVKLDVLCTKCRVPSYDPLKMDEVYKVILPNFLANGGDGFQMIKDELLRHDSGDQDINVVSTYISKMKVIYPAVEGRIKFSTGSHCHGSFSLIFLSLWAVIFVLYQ
MEASUREMENT PROTOCOL: Biochemical CD73 Assay (Malachite Green free phosphate detection)
ASSAY CONTEXT: recombinant human CD73 2 nM, AMP 40 μM, 45 min at 37° C.
Experimental: Activity of recombinant CD73 was measured by quantification of free phosphate using the Malachite Green detection system (R&D Systems #DY996). Test compounds were solubilized in DMSO and dispensed into 384-well polystyrene plates in a 8-point 3× titration in duplicates. […] Absorbance was then read at 620 nm with the Flexstation spectrophotometer (Molecular Devices). The IC50 values were determined using a four-parameter nonlinear regression curve fit.
Known IC50 of a selection of compounds

| COMPOUND | IC50 |
| --- | --- |
| COC[C@@](OC[C@H]1O[C@@H](n2ncc3c(NC4CCCC4)nc(Cl)nc32)[C@H](O)[C@@H]1O)(C(=O)N=[S@](C)(=O)NC(=O)OC)P(=O)(O)O [Example 18] | 0.5 nM |
| COC[C@](OC[C@H]1O[C@@H](n2ncc3c(NC4CCCC4)nc(Cl)nc32)[C@H](O)[C@@H]1O)(C(=O)N=[S@@](C)(=O)NC(C)=O)P(=O)(O)O [Example 6] | 220 nM |
| COC[C@@](OC[C@H]1O[C@@H](n2ncc3c(NC4CCCC4)cc(Cl)nc32)[C@H](O)[C@@H]1O)(C(=O)N=[S@](C)(=O)NC(=O)C1CC1)P(=O)(O)O [Example 28] | 1 nM |
| COC[C@](OC[C@H]1O[C@@H](n2ncc3c(NC4CCCC4)nc(Cl)nc32)[C@H](O)[C@@H]1O)(C(=O)N=[S@@](C)(N)=O)P(=O)(O)O [Example 4] | 275 nM |
| COC[C@@](OC[C@H]1O[C@@H](n2ncc3c(NC4CCCC4)cc(Cl)nc32)[C@H](O)[C@@H]1O)(C(=O)N=[S@@](C)(=O)NC(C)=O)P(=O)(O)O [Example 31] | 0.5 nM |
| COC[C@@](OC[C@H]1O[C@@H](n2ncc3c(NC4CCCC4)cc(Cl)nc32)[C@H](O)[C@@H]1O)(C(=O)N=[S@](C)(=O)NC(C)=O)P(=O)(O)O [Example 32] | 1 nM |
| COC[C@@](OC[C@H]1O[C@@H](n2ncc3c(NC4CCCC4)nc(Cl)nc32)[C@H](O)[C@@H]1O)(C(=O)N=[S@@](C)(=O)NC(=O)c1cccnc1)P(=O)(O)O [Example 27] | 7.8 nM |
| COC[C@@](OC[C@H]1O[C@@H](n2ncc3c(NC4CCCC4)nc(Cl)nc32)[C@H](O)[C@@H]1O)(C(=O)N=[S@](C)(N)=O)P(=O)(O)O [Example 1] | 0.94 nM |
| CCC(=O)NS(C)(=O)=NC(=O)[C@@](COC)(OC[C@H]1O[C@@H](n2ncc3c(NC4CCCC4)nc(Cl)nc32)[C@H](O)[C@@H]1O)P(=O)(O)O (some centres unmarked) [Example 14] | 0.74 nM |
| COC[C@@](OC[C@H]1O[C@@H](n2ncc3c(NC4CCCC4)nc(Cl)nc32)[C@H](O)[C@@H]1O)(C(=O)N=[S@@](C)(=O)NC(=O)C1CC1)P(=O)(O)O [Example 11] | 0.77 nM |
| COC[C@@](OC[C@H]1O[C@@H](n2ncc3c(NC4CCCC4)nc(Cl)nc32)[C@H](O)[C@@H]1O)(C(=O)N=[S@@](C)(=O)NC(=O)c1ccc(F)cc1)P(=O)(O)O (single isomer, unassigned) [Example 25] | 1.13 nM |
